# system: T1, membrane LIGHT W197A (human, UniProt O43557 1-240)
# T1 chain: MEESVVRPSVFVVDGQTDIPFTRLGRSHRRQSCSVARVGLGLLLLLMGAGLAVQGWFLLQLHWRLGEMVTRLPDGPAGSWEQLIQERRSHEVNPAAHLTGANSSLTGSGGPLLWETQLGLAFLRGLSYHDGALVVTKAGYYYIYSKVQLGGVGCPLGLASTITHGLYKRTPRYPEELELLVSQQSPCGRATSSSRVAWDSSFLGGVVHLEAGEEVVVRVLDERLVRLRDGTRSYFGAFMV
# test.method.notes: flow cytometry, transfected HEK293FF, mAb at EC50
binding, % of WT by entry:

{"columns": ["binder", "binding, % of WT (%)"],
 "data": [
  ["3B04 (antibody, human IgG4, V domains shown, chimeric: mouse variable domains on human IgG4 HC (S-to-P and L-to-E at 248) and human CL; also called Parental 3B04; 3B04 chimeric) VH: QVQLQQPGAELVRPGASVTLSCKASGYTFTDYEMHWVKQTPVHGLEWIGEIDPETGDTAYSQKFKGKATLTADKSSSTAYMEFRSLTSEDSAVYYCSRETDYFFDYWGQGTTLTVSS VL: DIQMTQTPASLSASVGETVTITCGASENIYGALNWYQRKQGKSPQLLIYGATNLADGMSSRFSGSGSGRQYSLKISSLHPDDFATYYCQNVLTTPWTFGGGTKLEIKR", 0],
  ["2E08 (antibody, human IgG4, V domains shown, chimeric human IgG4 (S-to-P, L-to-E at 248), human CL; also called Parental 2E08) VH: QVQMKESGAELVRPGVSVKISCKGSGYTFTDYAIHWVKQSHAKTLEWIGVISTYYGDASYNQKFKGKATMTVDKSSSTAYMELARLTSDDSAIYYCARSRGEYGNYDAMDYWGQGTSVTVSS VL: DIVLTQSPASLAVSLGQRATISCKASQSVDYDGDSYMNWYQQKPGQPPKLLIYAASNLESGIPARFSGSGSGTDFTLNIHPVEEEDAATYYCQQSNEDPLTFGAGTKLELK", 0],
  ["3A07 (antibody, human IgG4, V domains shown, chimeric human IgG4 (S-to-P, L-to-E at 248), human CL; also called Parental 3A07) VH: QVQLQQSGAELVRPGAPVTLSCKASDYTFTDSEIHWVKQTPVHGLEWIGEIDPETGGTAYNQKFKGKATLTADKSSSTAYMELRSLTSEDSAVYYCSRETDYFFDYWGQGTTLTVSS VL: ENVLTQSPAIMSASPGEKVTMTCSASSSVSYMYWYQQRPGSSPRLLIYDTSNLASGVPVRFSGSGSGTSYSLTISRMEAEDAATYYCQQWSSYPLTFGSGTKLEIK", 1]
]}
